assay.system: UniProt:Q09472
assay.remarks: Immunoblotting of P300 protein levels in LNCaP or 22RV1 cells
Format: cell-based
Parameters: LNCaP or 22RV1 cells that express CBP/P300 proteins were treated with GNE-781 or the bivalent compounds; endogenous in cells; host or cells: LNCaP (clone FGC) or 22RV1 cells
experimental.setup: percentage of inhibition of p300 at 10 nM (Table 3); read-out: Degradation (10 nM)
measured.attribute: inhibition at 0.01 µM

{"columns": ["molecule", "inhibition at 0.01 µM"],
 "data": [
  ["CNC(=O)N1CCc2c(c(N3CCCc4cc(-c5cnn(C)c5)c(C(F)F)cc43)nn2C2CCN(C(=O)CCOCCOCCOCCOCCOCCNc3cccc4c3C(=O)N(C3CCC(=O)NC3=O)C4=O)CC2)C1 (centres unmarked)", "< 20%"],
  ["CC(=O)N1CCc2c(c(N3CCCc4cc(-c5cnn(C)c5)c(C(F)F)cc43)nn2C2CCN(C(=O)CCCCCCCNc3cccc4c3n(C)c(=O)n4C3CCC(=O)NC3=O)CC2)C1 (centres unmarked)", "> 80%"],
  ["CC(=O)N1CCc2c(c(N3CCCc4cc(-c5cnn(C)c5)c(C(F)F)cc43)nn2C2CCN(CCN3CCC(CCc4cccc5c4C(=O)N(C4CCC(=O)NC4=O)C5=O)CC3)CC2)C1 (centres unmarked)", "50 to 80%"],
  ["CC(=O)N1CCc2c(c(N3CCCc4cc(-c5cnn(C)c5)c(C(F)F)cc43)nn2C2CCN(C(=O)CN3CCOC(CNc4cccc5c4C(=O)N(C4CCC(=O)NC4=O)C5=O)C3)CC2)C1 (centres unmarked)", "50 to 80%"]
]}

Here is another molecule to look at.
Task: Report inhibition at 0.01 µM for CNC(=O)N1CCc2c(c(N3CCCc4cc(-c5cnn(C)c5)c(C(F)F)cc43)nn2C2CCN(C(=O)CCCCCOc3cccc4c3C(=O)N(C3CCC(=O)NC3=O)C4)CC2)C1 (centres unmarked) please.
Result: < 20%

---

assay.system: P300 (Homo sapiens, UniProt Q09472)
Sequence (Q09472 whole entry): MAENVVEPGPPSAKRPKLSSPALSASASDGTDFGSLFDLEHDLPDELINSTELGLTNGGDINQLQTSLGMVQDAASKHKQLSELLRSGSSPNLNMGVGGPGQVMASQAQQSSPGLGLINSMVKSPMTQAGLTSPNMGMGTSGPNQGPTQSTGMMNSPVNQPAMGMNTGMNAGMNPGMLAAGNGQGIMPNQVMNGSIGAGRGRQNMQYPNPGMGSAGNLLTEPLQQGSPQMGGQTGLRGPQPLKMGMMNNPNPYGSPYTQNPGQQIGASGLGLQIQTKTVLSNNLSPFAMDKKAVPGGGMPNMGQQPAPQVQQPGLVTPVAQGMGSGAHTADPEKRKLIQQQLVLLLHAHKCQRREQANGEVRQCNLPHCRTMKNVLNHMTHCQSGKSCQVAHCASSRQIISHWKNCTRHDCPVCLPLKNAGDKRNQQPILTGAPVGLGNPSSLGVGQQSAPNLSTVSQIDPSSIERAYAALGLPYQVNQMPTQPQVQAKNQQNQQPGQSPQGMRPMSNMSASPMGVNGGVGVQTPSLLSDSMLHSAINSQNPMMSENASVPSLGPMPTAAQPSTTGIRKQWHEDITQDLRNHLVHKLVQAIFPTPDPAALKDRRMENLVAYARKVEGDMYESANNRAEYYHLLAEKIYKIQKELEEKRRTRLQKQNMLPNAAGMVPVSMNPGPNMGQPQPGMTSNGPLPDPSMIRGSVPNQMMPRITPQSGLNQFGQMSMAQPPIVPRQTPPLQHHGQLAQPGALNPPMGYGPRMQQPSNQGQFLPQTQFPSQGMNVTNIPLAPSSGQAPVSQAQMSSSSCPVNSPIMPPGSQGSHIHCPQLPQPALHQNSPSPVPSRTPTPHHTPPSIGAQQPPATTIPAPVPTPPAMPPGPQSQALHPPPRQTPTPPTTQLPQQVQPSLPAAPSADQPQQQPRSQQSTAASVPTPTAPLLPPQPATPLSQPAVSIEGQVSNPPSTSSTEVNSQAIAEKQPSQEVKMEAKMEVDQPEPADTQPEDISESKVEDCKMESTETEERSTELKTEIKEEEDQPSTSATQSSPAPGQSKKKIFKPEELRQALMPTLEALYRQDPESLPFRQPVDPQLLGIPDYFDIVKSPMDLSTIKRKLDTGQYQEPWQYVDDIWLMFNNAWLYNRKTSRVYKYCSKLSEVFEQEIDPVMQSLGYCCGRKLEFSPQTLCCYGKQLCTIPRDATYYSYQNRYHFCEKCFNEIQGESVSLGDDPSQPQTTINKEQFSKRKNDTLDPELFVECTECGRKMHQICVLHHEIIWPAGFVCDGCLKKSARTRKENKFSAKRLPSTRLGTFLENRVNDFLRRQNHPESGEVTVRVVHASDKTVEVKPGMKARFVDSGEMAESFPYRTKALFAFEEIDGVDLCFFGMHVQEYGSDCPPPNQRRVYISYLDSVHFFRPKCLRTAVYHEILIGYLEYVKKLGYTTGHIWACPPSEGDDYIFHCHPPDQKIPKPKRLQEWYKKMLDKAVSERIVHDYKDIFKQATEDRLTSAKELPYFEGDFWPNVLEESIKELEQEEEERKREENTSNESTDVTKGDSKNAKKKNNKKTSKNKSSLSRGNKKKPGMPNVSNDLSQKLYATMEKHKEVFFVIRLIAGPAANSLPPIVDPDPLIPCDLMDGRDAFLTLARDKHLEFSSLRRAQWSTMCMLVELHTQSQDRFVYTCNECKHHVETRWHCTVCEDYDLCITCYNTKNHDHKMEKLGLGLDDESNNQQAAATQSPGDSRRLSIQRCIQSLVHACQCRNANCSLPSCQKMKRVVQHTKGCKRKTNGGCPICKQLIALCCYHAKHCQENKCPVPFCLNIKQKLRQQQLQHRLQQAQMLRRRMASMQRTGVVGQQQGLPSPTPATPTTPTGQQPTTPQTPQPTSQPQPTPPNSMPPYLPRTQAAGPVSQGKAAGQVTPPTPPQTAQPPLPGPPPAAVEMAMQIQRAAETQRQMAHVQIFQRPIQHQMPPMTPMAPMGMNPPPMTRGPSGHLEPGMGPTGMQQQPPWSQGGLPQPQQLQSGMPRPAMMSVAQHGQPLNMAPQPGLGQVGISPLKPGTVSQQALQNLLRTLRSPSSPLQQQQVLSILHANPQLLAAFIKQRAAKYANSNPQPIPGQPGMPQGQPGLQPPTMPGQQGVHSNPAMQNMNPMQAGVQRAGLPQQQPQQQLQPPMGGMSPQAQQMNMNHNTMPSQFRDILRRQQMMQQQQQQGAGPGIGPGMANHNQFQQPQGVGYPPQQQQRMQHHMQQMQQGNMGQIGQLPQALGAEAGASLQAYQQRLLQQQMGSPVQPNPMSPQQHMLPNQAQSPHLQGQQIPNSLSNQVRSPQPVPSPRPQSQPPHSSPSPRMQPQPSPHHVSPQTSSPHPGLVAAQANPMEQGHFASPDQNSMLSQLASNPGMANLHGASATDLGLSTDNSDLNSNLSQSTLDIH
assay.remarks: Immunoblotting of P300 protein levels in LNCaP or 22RV1 cells
Type: cell-based
Set-up: LNCaP or 22RV1 cells that express CBP/P300 proteins were treated with GNE-781 or the bivalent compounds; endogenous in cells; host or cells: LNCaP (clone FGC) or 22RV1 cells
experimental.setup: percentage of inhibition of p300 at 10 nM (Table 3); read-out: Degradation (10 nM)
measured.attribute: inhibition at 0.01 µM

Sample records with inhibition at 0.01 µM:
{"columns": ["compound", "assay.system", "inhibition at 0.01 µM"],
 "data": [
  ["CNC(=O)N1CCc2c(c(N3CCCc4cc(-c5cnn(C)c5)c(C(F)F)cc43)nn2C2CCN(C(=O)COCCOCCOCCOCCOCC(=O)N[C@H](C(=O)N3C[C@H](O)C[C@H]3C(=O)NCc3ccc(-c4scnc4C)cc3)C(C)(C)C)CC2)C1", "P300 (Homo sapiens, UniProt Q09472)", "20 to 50%"],
  ["CNC(=O)N1CCc2c(c(N3CCCc4cc(-c5cnn(CC(=O)NCCOCCOCCOCCOCCC(=O)N[C@H](C(=O)N6C[C@H](O)C[C@H]6C(=O)NCc6ccc(-c7scnc7C)cc6)C(C)(C)C)c5)c(C(F)F)cc43)nn2C2CCOCC2)C1", "P300 (Homo sapiens, UniProt Q09472)", "< 20%"],
  ["CNC(=O)N1CCc2c(c(N3CCCc4cc(-c5cnn(C)c5)c(C(F)F)cc43)nn2C2CCN(C(=O)CCCCCCCCCC(=O)N[C@H](C(=O)N3C[C@H](O)C[C@H]3C(=O)NCc3ccc(-c4scnc4C)cc3)C(C)(C)C)CC2)C1", "P300 (Homo sapiens, UniProt Q09472)", "20 to 50%"],
  ["CC(=O)N1CCc2c(c(N3CCCc4cc(-c5cnn(C)c5)c(C(F)F)cc43)nn2C2CCN(C(=O)CCCCCCNc3ccc4c(c3)n(C)c(=O)n4C3CCC(=O)NC3=O)CC2)C1 (stereo not shown)", "P300 (Homo sapiens, UniProt Q09472)", "> 80%"],
  ["CNC(=O)N1CCc2c(c(N3CCCc4cc(-c5cnn(CC(=O)NCCCCCCC(=O)N[C@H](C(=O)N6C[C@H](O)C[C@H]6C(=O)NCc6ccc(-c7scnc7C)cc6)C(C)(C)C)c5)c(C(F)F)cc43)nn2C2CCOCC2)C1", "P300 (Homo sapiens, UniProt Q09472)", "< 20%"]
]}

Task: Report inhibition at 0.01 µM for CC(=O)N1CCc2c(c(N3CCCc4cc(-c5cnn(C)c5)c(C(F)F)cc43)nn2C2CCN(C(=O)CCC3CN(Cc4cccc5c4C(=O)N(C4CCC(=O)NC4=O)C5=O)C3)CC2)C1 (stereo not shown) please.
Result: < 20%

Task: Report inhibition at 0.01 µM for CC(=O)N1CCc2c(c(N3CCCc4cc(-c5cnn(C)c5)c(C(F)F)cc43)nn2C2CCN(CC3CCN(CC#Cc4cccc5c4C(=O)N(C4CCC(=O)NC4=O)C5=O)CC3)CC2)C1 (stereo not shown) please.
Result: > 80%
